Experimental system: T1, human chemokine (C-C motif) receptor 8 (CCR8) (human, UniProt P51685 1-355)
T1 construct: On human peripheral blood lymphocytes / PBMC (native) or on human CCR8 GFP-transfected Ba/F3 cells; also called hCCR8; human CCR8
T1 sequence (P51685 whole entry): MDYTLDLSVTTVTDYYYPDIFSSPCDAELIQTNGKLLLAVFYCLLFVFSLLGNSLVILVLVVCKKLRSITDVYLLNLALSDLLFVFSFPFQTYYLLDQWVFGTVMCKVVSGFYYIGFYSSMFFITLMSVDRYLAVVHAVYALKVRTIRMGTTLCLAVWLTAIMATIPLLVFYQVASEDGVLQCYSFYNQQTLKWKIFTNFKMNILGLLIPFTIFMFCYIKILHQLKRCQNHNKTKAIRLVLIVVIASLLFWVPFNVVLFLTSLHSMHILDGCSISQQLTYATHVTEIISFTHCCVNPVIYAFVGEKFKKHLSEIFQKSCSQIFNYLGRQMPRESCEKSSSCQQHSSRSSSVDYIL
Assay text: flow cytometry blocking, PBMC CCR8+ CD4+ cells; competitor PE-ABII (its MFI is read)
Quick list: MFI per entry.
Property measured: MFI

INSERT INTO assay_data (binder, property_measured, result) VALUES
  ('AB15 (antibody, V domains shown, Hybridoma monoclonal; also called antibody 15; clone 15) VH: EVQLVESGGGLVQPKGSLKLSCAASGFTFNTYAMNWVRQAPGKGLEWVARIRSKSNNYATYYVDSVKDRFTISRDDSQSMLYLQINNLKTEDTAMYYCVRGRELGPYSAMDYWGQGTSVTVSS VL: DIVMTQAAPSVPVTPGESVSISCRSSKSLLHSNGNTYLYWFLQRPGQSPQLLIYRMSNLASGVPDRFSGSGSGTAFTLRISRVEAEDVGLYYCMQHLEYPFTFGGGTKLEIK', 'MFI', 1110),
  ('AB14 (antibody, V domains shown, Hybridoma monoclonal; also called antibody 14; clone 14) VH: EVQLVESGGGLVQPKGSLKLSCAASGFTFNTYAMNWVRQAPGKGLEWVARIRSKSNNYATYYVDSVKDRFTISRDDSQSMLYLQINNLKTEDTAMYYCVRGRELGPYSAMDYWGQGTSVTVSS VL: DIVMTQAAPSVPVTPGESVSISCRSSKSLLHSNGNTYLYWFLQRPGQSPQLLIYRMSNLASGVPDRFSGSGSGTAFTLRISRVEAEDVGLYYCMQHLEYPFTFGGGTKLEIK', 'MFI', 1000),
  ('AB2 (antibody, V domains shown, Hybridoma monoclonal; also called antibody 2; clone 2) VH: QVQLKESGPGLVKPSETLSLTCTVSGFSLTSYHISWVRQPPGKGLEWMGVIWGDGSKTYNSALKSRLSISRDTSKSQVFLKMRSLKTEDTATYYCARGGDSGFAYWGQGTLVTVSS VL: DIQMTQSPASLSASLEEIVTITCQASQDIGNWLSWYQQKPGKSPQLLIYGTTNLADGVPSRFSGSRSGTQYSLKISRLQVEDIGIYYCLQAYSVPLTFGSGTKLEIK', 'MFI', 1100);

The reported numbers originate from patent US20240360228A1.
